# Measurement notes: yeast display, Sf9 membrane polyspecificity reagent, FACS + sequencing; frameworks hold sequencing errors

| Sequence content | polyreactivity (PSR sort gate) |
| --- | --- |
| QVQLVESGGGLVQAGGSLRLSCAASGSIFYPYAMGCYRQAPGKERELVAAITSSGGSTYYADSVKGRFTISRDNAKNTVYLQMNSLKPEDTAVYYCNAKGPYTAIYYKPFLGSTRFEYWGQGTQVTVSS | high polyreactivity |
| QVQLVESGGGLVQAGGSLRLSCAASGSIFSSYAMGWYRQAPGKERELVAAISSGGITYYADSVKGRFTISRDNAKNTVYLQMNSLKPEDTAVYYCAAVRRRGTTYDYWGQGTQVTVSS | high polyreactivity |
| QVQLVEAGGGLVQAGGSLRFSCAASGSLFRWYAMGWYRQAPGKERELVAAINRGGDSTYYADSVKGRFTISRDNAKNTVYLQMNSLKPEDTAVYYCNAVSSWKLLYSSYDSWGQGTQVTVSS | high polyreactivity |
| QVQLVESGGGLVQAGGSLRLSCAASGRTFRWYAMGWYRQAPGKERELVAAISSSGTRTYYADSVKGRFTISRDNAKNTVYLQMNSLKPEDTAVYYCAATWRVGYDYWGQGTQVTVSS | high polyreactivity |
| QVQLVESGGGLVQAGGSLRLSCAASGRIFRTYAMGWYRQAPGKERELVASISWGGGSRTYADSVKGRFTISRDNAKNTVYLQMNSLKPEDTGVYYCAADVHYTFGMDYWGQGTQVTVSS | high polyreactivity |
| QVQLVESGGGLVQAGGSHRLSCAASGRIFVGYAMGWYRQAPGKERELVAGISGGGRTNYADSVKGRFTISRDNAKNTVYLQMNSLKPEDTAVYYCIAGGSVWYRSQRGWKGYYNQMDYWGQGTQVTVSS | high polyreactivity |
| QVHLVESGGGLVQAGGSLRLSCSASGRIFRVYAMGWYRQPPGKERELVAAIDQRGGRTYYADSVKGRFTISRDNAKNTVYLQMNSLKPEDTAVYYCNAEYYVSSLVESEYWGQGSQVTVSS | low polyreactivity |
| QVQLVESGVGLVQAGGSLRLSCAASGSTFNYYAMGWYRQAPGKERELVAAISSRSSRTFYADSVKGRFTISRDNAKNTVYLQMHSVKPEDTAVYYCAVKKSAPDGDYWGQGTQVTVSS | high polyreactivity |
| QVQLVESGGGLVQAGGSLRLSCAASGRIFKGYAMGWYRQAPGKERELVAAITWRGGTTYYADSVKGRFTISRDNAKNTVYLQMNSLKPEDTAVYYCAAVTRRYVLSTFYYWGQGTQVTVSS | high polyreactivity |
| QVQLVESGGGLVQAGGSLRLSCAASGRTLFSNAMGWYRQAPGKERELVASITSGDSTYYADSVKGRFTISRDNAKNTVYLQMNSLKPEDTSVYYCAADPSIVDGEYGYWGQGTQVTVSS | low polyreactivity |
| QVQLVETGGGLVQAGGSLRLSCAASGFIFGYYAMGWYRQAPGKERELVADITSGGSTYYADSVKGRFIISRDNAKNTVYLQMNSLKPEDTAVYYCNKAWELVSQSLYYTEYNYWGQGTQVTVSS | low polyreactivity |
